Reference for the values: the supplement of paper PMC10567573

B1: DUSP5 (parent)
chain: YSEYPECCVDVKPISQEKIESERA

- Variants of: B1
- test.protocol: protein stability index of a GFP-peptide fusion (GPS, HEK-293T) (PSI 1-6); higher = more stable;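 note: lentivirally expressed fusions sorted by FACS into six bins by GFP to DsRed ratio, PSI derived from sequencing read proportions per bin multiplied by bin number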
- condition.label: c terminus: a fixed tail appended
reported.property: protein stability index

{"columns": ["mutations", "observed.measurement"],
 "data": [
  ["P5R", 3.48],
  ["E6A", 2.63],
  ["P13A", 4.56],
  ["S21C", 3.96],
  ["S2I", 1.92],
  ["D10I", 2.6],
  ["K18C", 3.1],
  ["E22I", 3.54],
  ["E22T", 4.17],
  ["E22Q", 3.54],
  ["S21W", 3.61],
  ["D10C", 2.69],
  ["V9E", 5.56],
  ["Q16V", 3.41],
  ["A24H", 3.73],
  ["Q16L", 4.19],
  ["A24P", 3.88],
  ["S21R", 3.22],
  ["C7W", 2.95],
  ["E3Y", 4.24],
  ["E22W", 2.88],
  ["V9T", 4.4],
  ["R23Y", 3.71],
  ["K12N", 4.07],
  ["S15G", 4.45],
  ["S2C", 2.29],
  ["Q16K", 3.85],
  ["V11W", 4.09],
  ["Y1E", 5.86],
  ["Y4L", 5.71],
  ["R23M", 3.91],
  ["E6K", 1.38],
  ["R23T", 4.44],
  ["K18E", 4.55],
  ["E17Y", 3.1],
  ["E20D", 4.28],
  ["S15D", 4.81],
  ["S2A", 3.48],
  ["E20V", 2.78],
  ["E22H", 4],
  ["Q16F", 3.58],
  ["S21I", 3.42],
  ["D10S", 3.88],
  ["E22K", 3.43],
  ["Q16N", 4.59],
  ["I14A", 4.58]
]}
